Listing of entries alongside the reported inhibition at 1 ppm.
# Tested on: pathogenic bacteria causing bacterial blight in rice
# assay-name: whole plant or invertebrate
# Type: cell-based, xanthomonas
# measurement-conditions: read-out: inhibitory rate
measure-name: inhibition at 1 ppm

{"structure": "CCOCOC(=O)c1cn(C2CC2)c2cc(OCC)c(F)cc2c1=O", "test-value": "≥ 80%"}
{"structure": "CCNc1cc2c(cc1F)c(=O)c(C(=O)OCCOC)cn2C1CC1", "test-value": "≥ 90%"}
{"structure": "O=C(OCCO)c1cn(C2CC2)c2cc(OCC(F)(F)F)c(F)cc2c1=O", "test-value": "≥ 90%"}
{"structure": "O=C(OCCO)c1cn(C2CC2)c2cc(Cl)c(F)cc2c1=O", "test-value": "≥ 90%"}
{"structure": "O=C(OCCOC1CC1)c1cn(C2CC2)c2cc(Cl)c(F)cc2c1=O", "test-value": "≥ 80%"}

----------
# Test system: soft rot in Chinese cabbages
# assay-name: whole plant or invertebrate
# measurement-conditions: 48 h, read-out: efficacy against soft rot in Chinese cabbages
Recorded pest or weed control at 5 ppm by entry

{"structure": "CCOCOC(=O)c1cn(C2CC2)c2cc(Cl)c(F)cc2c1=O", "pest or weed control at 5 ppm": "≥ 80%"}
{"structure": "CCOCCOC(=O)c1cn(C2CC2)c2cc(Cl)c(F)cc2c1=O", "pest or weed control at 5 ppm": "≥ 90%"}
{"structure": "COCCOC(=O)c1cn(C2CC2)c2cc(OC3CC3)c(F)cc2c1=O", "pest or weed control at 5 ppm": "≥ 90%"}
{"structure": "COCCOC(=O)c1cn(C2CC2)c2cc(OC)c(F)cc2c1=O", "pest or weed control at 5 ppm": "≥ 90%"}
{"structure": "CCOCOC(=O)c1cn(C2CC2)c2cc(OCC)c(F)cc2c1=O", "pest or weed control at 5 ppm": "≥ 90%"}
{"structure": "CCOCCOC(=O)c1cn(C2CC2)c2cc(OCC(F)(F)F)c(F)cc2c1=O", "pest or weed control at 5 ppm": "≥ 90%"}
{"structure": "COCOC(=O)c1cn(C2CC2)c2ccc(F)cc2c1=O", "pest or weed control at 5 ppm": "≥ 80%"}
{"structure": "O=C(OCCCCO)c1cn(C2CC2)c2cc(Cl)c(F)cc2c1=O", "pest or weed control at 5 ppm": "≥ 90%"}
{"structure": "COCCCCOC(=O)c1cn(C2CC2)c2cc(Cl)c(F)cc2c1=O", "pest or weed control at 5 ppm": "≥ 90%"}
{"structure": "O=C(OCCO)c1cn(C2CC2)c2cc(OCC(F)(F)F)ccc2c1=O", "pest or weed control at 5 ppm": "≥ 80%"}
{"structure": "CC(C)(C)Oc1cc2c(cc1F)c(=O)c(C(=O)OCCO)cn2C1CC1", "pest or weed control at 5 ppm": "≥ 90%"}
{"structure": "COCCOC(=O)c1cn(C2CC2)c2cc(OC)ccc2c1=O", "pest or weed control at 5 ppm": "≥ 80%"}
{"structure": "COCCCOC(=O)c1cn(C2CC2)c2cc(Cl)c(F)cc2c1=O", "pest or weed control at 5 ppm": "≥ 90%"}
{"structure": "CSc1cc2c(cc1F)c(=O)c(C(=O)OCCO)cn2C1CC1", "pest or weed control at 5 ppm": "≥ 90%"}
{"structure": "CCOc1cc2c(cc1F)c(=O)c(C(=O)OCCO)cn2C1CC1", "pest or weed control at 5 ppm": "≥ 90%"}
{"structure": "O=C(OCCCO)c1cn(C2CC2)c2cc(OCC(F)(F)F)c(F)cc2c1=O", "pest or weed control at 5 ppm": "≥ 90%"}
{"structure": "CCNc1cc2c(cc1F)c(=O)c(C(=O)OCCO)cn2C1CC1", "pest or weed control at 5 ppm": "≥ 90%"}
{"structure": "COCCOC(=O)c1cn(C2CC2)c2cc(OCC(F)(F)F)ccc2c1=O", "pest or weed control at 5 ppm": "≥ 80%"}
{"structure": "COc1cc2c(cc1F)c(=O)c(C(=O)OCCCO)cn2C1CC1", "pest or weed control at 5 ppm": "≥ 90%"}
{"structure": "COCCOC(=O)c1cn(C2CC2)c2cc(F)ccc2c1=O", "pest or weed control at 5 ppm": "≥ 90%"}
{"structure": "COCCOC(=O)c1cn(C2CC2)c2cc(OC3CCCC3)c(F)cc2c1=O", "pest or weed control at 5 ppm": "≥ 90%"}
{"structure": "O=C(OCCCO)c1cn(C2CC2)c2ccc(F)cc2c1=O", "pest or weed control at 5 ppm": "≥ 80%"}
{"structure": "CCOc1cc2c(cc1F)c(=O)c(C(=O)OCCCOC)cn2C1CC1", "pest or weed control at 5 ppm": "≥ 90%"}
{"structure": "O=C(OCCO)c1cn(C2CC2)c2cc(N3CCCCC3)c(F)cc2c1=O", "pest or weed control at 5 ppm": "≥ 90%"}
{"structure": "COCCOC(=O)c1cn(C2CC2)c2cc(SC)c(F)cc2c1=O", "pest or weed control at 5 ppm": "≥ 90%"}
{"structure": "CCSc1cc2c(cc1F)c(=O)c(C(=O)OCCOC)cn2C1CC1", "pest or weed control at 5 ppm": "≥ 90%"}
{"structure": "COCCOC(=O)c1cn(C2CC2)c2cc(OCC(F)(F)F)c(F)cc2c1=O", "pest or weed control at 5 ppm": "≥ 90%"}
{"structure": "O=C(OCCCO)c1cn(C2CC2)c2cc(F)ccc2c1=O", "pest or weed control at 5 ppm": "≥ 90%"}
{"structure": "O=C(OCCO)c1cn(C2CC2)c2ccc(Cl)cc2c1=O", "pest or weed control at 5 ppm": "≥ 80%"}
{"structure": "CCOc1cc2c(cc1F)c(=O)c(C(=O)OCCOC(C)C)cn2C1CC1", "pest or weed control at 5 ppm": "≥ 90%"}
{"structure": "O=C(OCCO)c1cn(C2CC2)c2cc(Cl)c(F)cc2c1=O", "pest or weed control at 5 ppm": "≥ 90%"}
{"structure": "CNc1cc2c(cc1F)c(=O)c(C(=O)OCCOC)cn2C1CC1", "pest or weed control at 5 ppm": "≥ 90%"}
{"structure": "O=C(OCCO)c1cn(C2CC2)c2cc(OCC(F)(F)F)c(F)cc2c1=O", "pest or weed control at 5 ppm": "≥ 90%"}
{"structure": "CNc1cc2c(cc1F)c(=O)c(C(=O)OCCO)cn2C1CC1", "pest or weed control at 5 ppm": "≥ 90%"}
{"structure": "CCN(CC)c1cc2c(cc1F)c(=O)c(C(=O)OCCO)cn2C1CC1", "pest or weed control at 5 ppm": "≥ 90%"}
{"structure": "COCCCOC(=O)c1cn(C2CC2)c2cc(OC)c(F)cc2c1=O", "pest or weed control at 5 ppm": "≥ 90%"}
{"structure": "CN(C)c1cc2c(cc1F)c(=O)c(C(=O)OCCO)cn2C1CC1", "pest or weed control at 5 ppm": "≥ 90%"}

Ref: patent US20250313533A1
